Hello, the source for this data is paper PMC8491401, in case you need it.

assayedTarget: β-Galactosidase from Aspergillus oryzae (Aspergillus oryzae, UniProt Q2UCU3)
Construct: gene lacA; commercial enzyme from Sigma-Aldrich, secreted fungal enzyme; construct details not given
Sequence (Q2UCU3 19-1005): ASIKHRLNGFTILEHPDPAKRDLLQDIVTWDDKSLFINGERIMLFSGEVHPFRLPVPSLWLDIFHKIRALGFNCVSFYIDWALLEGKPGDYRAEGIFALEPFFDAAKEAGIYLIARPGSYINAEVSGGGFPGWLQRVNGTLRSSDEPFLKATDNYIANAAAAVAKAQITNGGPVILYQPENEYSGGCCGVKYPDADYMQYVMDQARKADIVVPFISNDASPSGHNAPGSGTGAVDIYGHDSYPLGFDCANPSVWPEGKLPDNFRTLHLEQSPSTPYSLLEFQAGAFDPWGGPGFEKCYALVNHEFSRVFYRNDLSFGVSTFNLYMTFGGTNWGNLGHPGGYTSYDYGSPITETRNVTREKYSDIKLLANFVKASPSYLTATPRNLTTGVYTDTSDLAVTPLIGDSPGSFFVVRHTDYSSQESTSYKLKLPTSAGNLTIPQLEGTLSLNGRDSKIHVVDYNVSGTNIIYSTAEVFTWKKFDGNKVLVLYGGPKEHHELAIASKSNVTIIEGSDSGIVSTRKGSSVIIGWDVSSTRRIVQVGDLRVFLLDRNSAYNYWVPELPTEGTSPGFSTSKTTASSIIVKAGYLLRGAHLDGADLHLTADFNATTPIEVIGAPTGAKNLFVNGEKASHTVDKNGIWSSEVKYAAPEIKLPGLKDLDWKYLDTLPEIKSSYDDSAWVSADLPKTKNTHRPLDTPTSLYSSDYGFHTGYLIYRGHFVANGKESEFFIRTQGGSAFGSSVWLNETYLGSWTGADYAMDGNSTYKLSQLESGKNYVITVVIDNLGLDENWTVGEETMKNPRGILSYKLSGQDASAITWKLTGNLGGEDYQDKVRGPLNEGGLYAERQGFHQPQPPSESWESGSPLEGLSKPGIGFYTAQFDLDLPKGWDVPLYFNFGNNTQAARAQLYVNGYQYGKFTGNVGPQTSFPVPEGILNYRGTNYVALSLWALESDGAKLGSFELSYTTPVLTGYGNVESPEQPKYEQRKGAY
experiment: ONPG hydrolysis, absorbance at […] nm
Type: biochemical
measuredProperty: IC50 (µM)
Numbers only; they are read as µM.

*Q* If you can, please state the reported IC50 value of "C[C@@H]1O[C@@H](OC[C@H]2O[C@@H](Oc3c(-c4ccc(O)c(O)c4)oc4cc(O)cc(O)c4c3=O)[C@H](O)[C@@H](O)[C@@H]2O)[C@H](O)[C@H](O)[C@H]1O" .
*A* 123
